- Method notes: self-splicing fitness, log relative to wild type (ln ratio); higher = more splicing; Tetrahymena group I intron in knt gene, E. coli kanamycin selection, DiMSum; sequences stand for … in CUCUCU…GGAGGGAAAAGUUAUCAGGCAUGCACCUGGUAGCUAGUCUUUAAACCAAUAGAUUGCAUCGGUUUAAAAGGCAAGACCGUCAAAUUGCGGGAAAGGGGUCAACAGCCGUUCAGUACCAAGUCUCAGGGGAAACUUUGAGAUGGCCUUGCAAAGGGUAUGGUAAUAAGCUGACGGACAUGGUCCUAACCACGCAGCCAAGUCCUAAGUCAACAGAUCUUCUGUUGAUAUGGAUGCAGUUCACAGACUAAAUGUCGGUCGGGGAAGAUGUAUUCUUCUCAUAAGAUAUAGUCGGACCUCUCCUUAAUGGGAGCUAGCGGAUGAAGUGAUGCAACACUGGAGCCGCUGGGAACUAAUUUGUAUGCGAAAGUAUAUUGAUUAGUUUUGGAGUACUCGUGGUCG;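 further: selection with 25 µg/mL kanamycin versus none on LB agar overnight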
- Stated conditions: 37 °C
Readout type: self-splicing fitness (ln)

Req: What measured self-splicing fitness (ln) goes with UGGCAGCAAUAUUACGGAUC ?
Resp: -1.99

Req: Moving on to the next sequence: CCGUAGCAAUAUUACGGUUC
Resp: -2.04

Req: Continue with AUUUAGCAAUAUUACGGGCU
Resp: -0.78

Req: Another sequence to check: UCGCAGCAAUAUUACGCCAU
Resp: -1.96

###

Hi there, I'd appreciate the recorded self-splicing fitness (ln) for every entry that follows.
- Method notes: self-splicing fitness, log relative to wild type (ln ratio); higher = more splicing; Tetrahymena group I intron in knt gene, E. coli kanamycin selection, DiMSum; sequences stand for … in CUCUCU…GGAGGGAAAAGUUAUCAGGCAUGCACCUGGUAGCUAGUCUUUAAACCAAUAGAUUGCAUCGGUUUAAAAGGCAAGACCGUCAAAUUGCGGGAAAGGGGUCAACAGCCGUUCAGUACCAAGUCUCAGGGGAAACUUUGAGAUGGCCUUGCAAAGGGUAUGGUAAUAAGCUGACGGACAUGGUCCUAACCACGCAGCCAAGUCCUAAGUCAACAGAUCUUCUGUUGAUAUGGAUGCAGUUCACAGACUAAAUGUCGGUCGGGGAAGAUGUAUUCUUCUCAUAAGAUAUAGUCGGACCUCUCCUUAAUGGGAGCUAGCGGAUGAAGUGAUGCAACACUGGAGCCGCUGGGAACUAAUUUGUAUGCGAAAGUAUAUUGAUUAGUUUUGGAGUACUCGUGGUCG
- Stated conditions: 37 °C
Answer with a number only.

Req: Item AAUUAGCAAUAUUACGGUAU has what recorded self-splicing fitness (ln)?
Resp: -0.598

Req: Another sequence to check: CGAAAGCAAUAUUACGAGUC
Resp: -2.22

Req: Here is the next sequence: AUGUAGCAAUAUUACGACAG
Resp: 0.358

Req: And what about the sequence CCUAAGCAAUAUUACGCAGA ?
Resp: -2.34

Req: Can you check AAUGAGCAAUAUUACGUCAA next?
Resp: -2.59

Req: Quick one: GGUCAGCAAUAUUACGUUGG
Resp: -2.51

Req: Now consider AGUCAGCAAUAUUACGGUUU and answer again.
Resp: -0.197

Req: Record: CGAGAGCAAUAUUACGUGAG
Resp: -1.75

Req: Try AAGCAGCAAUAUUACGGCUU next.
Resp: -0.925

Req: Param item: GCUCAGCAAUAUUACGGUCC
Resp: 0.158

Req: One more sequence: CUUAAGCAAUAUUACGCGUC
Resp: -3.25

Req: Next sequence: ACAUAGCAAUAUUACGCAGA
Resp: -1.74

Req: Do the same for UUUAAGCAAUAUUACGCAUU please
Resp: -2.63

Req: What do you have for GGGUAGCAAUAUUACGUGAC ?
Resp: -2.27

Req: Could you do the same for AUUAAGCAAUAUUACGUCAC , please?
Resp: -1.54

Req: Input CAUAAGCAAUAUUACGGAUG
Resp: -2.17

Req: Now this one: AAUCAGCAAUAUUACGCAUG
Resp: 0.349

Req: Also need CAGUAGCAAUAUUACGCUGA , thanks.
Resp: -1.95

Req: Next: GCUAAGCAAUAUUACGGCCG
Resp: -2.9

Req: What do you have for UGGCAGCAAUAUUACGUUUU ?
Resp: -0.527

Req: Now the sequence AUGGAGCAAUAUUACGGCUG
Resp: -1.84

Req: Next sequence up: UUGGAGCAAUAUUACGUCAA
Resp: -0.538

Req: Next: GAGUAGCAAUAUUACGGGUU
Resp: -1.81

Req: Same read-out for UCUCAGCAAUAUUACGGUUU ?
Resp: -0.695

Req: Next: CCAUAGCAAUAUUACGUACC
Resp: -2.21

Req: How about this sequence: AGCUAGCAAUAUUACGAAAC
Resp: -1.95

Req: Same thing, different sequence: UAUAAGCAAUAUUACGAAAU
Resp: -3.24

Req: And then CUUGAGCAAUAUUACGGGAU , what is it?
Resp: -2.63

Req: What do you get for GGCCAGCAAUAUUACGGCGU ?
Resp: -0.69

Req: Further, for GGCGAGCAAUAUUACGGUCC ?
Resp: -2.99

Req: For GUAAAGCAAUAUUACGCAAU then?
Resp: -0.564

Req: Also UGCAAGCAAUAUUACGUUGU ?
Resp: -2.78

Req: Would you kindly repeat that for CAGCAGCAAUAUUACGGAUC ?
Resp: -1.37

Req: What about CACGAGCAAUAUUACGUGAG ?
Resp: -2.38

Req: // query: ACAAAGCAAUAUUACGGCCU
Resp: 0.0409

Req: For ACUAAGCAAUAUUACGAAGU then?
Resp: -2.1

Req: Record: GCCCAGCAAUAUUACGCUAC
Resp: -2.72

Req: Now consider CCCCAGCAAUAUUACGUGGC .
Resp: -2.74

Req: Okay, and GGUUAGCAAUAUUACGGCUA ?
Resp: 0.861

Req: Lookup AUUGAGCAAUAUUACGUGGU
Resp: -3.12

Req: Same read-out for GACAAGCAAUAUUACGCUAU ?
Resp: -1.17

Req: Cool, now AGUUAGCAAUAUUACGGUCC
Resp: -0.259

Req: Further, for UGAAAGCAAUAUUACGCACG ?
Resp: 0.111

###

- Method notes: self-splicing fitness, log relative to wild type (ln ratio); higher = more splicing; Tetrahymena group I intron in knt gene, E. coli kanamycin selection, DiMSum; sequences stand for … in CUCUCU…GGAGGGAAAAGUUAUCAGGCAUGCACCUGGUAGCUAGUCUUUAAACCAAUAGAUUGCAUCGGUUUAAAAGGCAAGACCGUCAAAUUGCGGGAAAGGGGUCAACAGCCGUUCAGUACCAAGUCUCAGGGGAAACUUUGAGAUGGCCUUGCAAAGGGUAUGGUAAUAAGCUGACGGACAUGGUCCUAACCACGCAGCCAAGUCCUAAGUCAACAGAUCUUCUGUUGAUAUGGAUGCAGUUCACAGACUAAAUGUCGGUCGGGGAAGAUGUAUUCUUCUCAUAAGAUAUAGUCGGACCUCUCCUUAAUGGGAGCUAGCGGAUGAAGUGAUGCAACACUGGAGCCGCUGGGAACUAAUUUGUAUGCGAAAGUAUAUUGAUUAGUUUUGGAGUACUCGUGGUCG
- Stated conditions: 30 °C
Readout type: self-splicing fitness (ln)

Req: Suppose we examine the sequence UUUGAGCAAUAUUACGUCUA ; what self-splicing fitness (ln) value has been reported?
Resp: -1.05

Req: Similarly, GGCAAGCAAUAUUACGCUCC ?
Resp: -2.93

Req: Note, next up: UUUUAGCAAUAUUACGCUUU
Resp: -3.71

Req: Do the same for UGCCAGCAAUAUUACGUGCU please
Resp: -3.14

Req: Note, next up: ACAGAGCAAUAUUACGGACG
Resp: -3.09

Req: Again, but for AUAAAGCAAUAUUACGAGGG
Resp: -3.4

Req: Can you check GUAUAGCAAUAUUACGCGAG next?
Resp: -1.31

Req: Same thing, different sequence: CUGGAGCAAUAUUACGGCAU
Resp: -3.26

Req: And for UGAAAGCAAUAUUACGGGAU ?
Resp: -2.6

Req: Next entry: CACAAGCAAUAUUACGUAGU
Resp: -3.4

Req: Proceed to AUCGAGCAAUAUUACGAAAG
Resp: -2.41

Req: Try the sequence GCUUAGCAAUAUUACGUACC
Resp: -0.204

Req: Then what about the sequence UGAAAGCAAUAUUACGUGAG ?
Resp: -0.356

Req: Param item: GAAUAGCAAUAUUACGGACG
Resp: -1.84

Req: Further, for AGUUAGCAAUAUUACGGUCC ?
Resp: -0.223

Req: // query: UCCUAGCAAUAUUACGACCG
Resp: -3.3

Req: Now this one: GAGAAGCAAUAUUACGGUUU
Resp: -1.07

Req: Repeat with UGCUAGCAAUAUUACGAGGU
Resp: -2.94

Req: Same for CAUCAGCAAUAUUACGCAUC
Resp: -1.34

Req: What about CUAGAGCAAUAUUACGACGU ?
Resp: -3.28

Req: What do you get for CCCAAGCAAUAUUACGCCCG ?
Resp: -2.76

Req: Another sequence: CAGCAGCAAUAUUACGGAUC
Resp: -3.6

Req: AGACAGCAAUAUUACGCCGA , same question.
Resp: -2.06

Req: Same thing, different sequence: GACGAGCAAUAUUACGAGAG
Resp: -3.77

Req: Would you mind doing ACCUAGCAAUAUUACGGCCG as well?
Resp: -2.22

Req: Quick one: CCCUAGCAAUAUUACGCGAG
Resp: -3.61

Req: For CCGGAGCAAUAUUACGGAAA then?
Resp: -1.87

Req: Another sequence to check: GCCCAGCAAUAUUACGUCGU
Resp: -0.113

Req: Then what about the sequence AUGGAGCAAUAUUACGCUCU ?
Resp: -3.56

Req: Consider next the sequence CGGCAGCAAUAUUACGGGGA in the same way.
Resp: -3.21

Req: Thanks! And UGUUAGCAAUAUUACGAUUG ?
Resp: -0.695

Req: Now consider CUCAAGCAAUAUUACGACCU and answer again.
Resp: -2.96

Req: Same again, this time with GGCGAGCAAUAUUACGUGGU
Resp: -4.31

Req: Then what about the sequence UGAUAGCAAUAUUACGCGAU ?
Resp: -2.6

Req: Same thing, different sequence: UACAAGCAAUAUUACGACCC
Resp: -2.31

Req: Another sequence to check: GGCAAGCAAUAUUACGGACC
Resp: -1.77

Req: Field entry: AUACAGCAAUAUUACGGUGG
Resp: -2.95

Req: Item: GGGCAGCAAUAUUACGGACU
Resp: -0.562

Req: What do you have for GAGCAGCAAUAUUACGAGCU ?
Resp: -2.58

Req: // same read-out, input: UUAAAGCAAUAUUACGUCUA
Resp: 0.0872

Req: What do you get for CCCAAGCAAUAUUACGCCUC ?
Resp: -2.93

Req: Also need CGCGAGCAAUAUUACGUCCG , thanks.
Resp: -2.81

Req: Next: CCGGAGCAAUAUUACGGAAC
Resp: -3.29

Req: Lookup CCCGAGCAAUAUUACGGCCA
Resp: -2.88

Req: GUAUAGCAAUAUUACGCCUU ?
Resp: -2.11

Req: Also check GUGCAGCAAUAUUACGCGCC
Resp: -3.58

Req: Please do the same for UAGUAGCAAUAUUACGCAGG as well.
Resp: -2.8

Req: Repeat for the following sequence: CGUAAGCAAUAUUACGUGGC
Resp: -4.85

Req: Quick one: UGAAAGCAAUAUUACGGCUG
Resp: 0.281

Req: Now try GCCAAGCAAUAUUACGACGG .
Resp: -3.8

Req: Queued: CAUUAGCAAUAUUACGCCGA
Resp: -2.32

Req: Same read-out for CGUCAGCAAUAUUACGAGGA ?
Resp: -2.27

Req: Same thing, different sequence: CCCGAGCAAUAUUACGAAGU
Resp: -3.58

Req: Please give the result for UGCAAGCAAUAUUACGAGCG too.
Resp: -2.37

Req: Quick one: UUAUAGCAAUAUUACGAGAU
Resp: -3.27

Req: CUCCAGCAAUAUUACGCCAG , same question.
Resp: -3.19

Req: Entry GCCAAGCAAUAUUACGUACU please
Resp: -1.15

Req: Then this sequence: GUGCAGCAAUAUUACGUCAA
Resp: -1.6

Req: Continue with CCGCAGCAAUAUUACGCACC
Resp: -3.46

Req: Moving on to GAAGAGCAAUAUUACGUUGC
Resp: -3.04

Req: // repeat for ACUUAGCAAUAUUACGUUCA and report
Resp: -0.344
